Recorded values, source patent US10138237B2.

biological target: human mGlu2 receptor (Homo sapiens, UniProt Q14416); construct: expressed in transfected cells; host or cells: CHO cells (membrane preparation); test: [35S]GTPγS binding assay, hmGluR2 PAM; type: biochemical; settings: membranes from CHO cells with human mGlu2 receptor; in presence of EC20 glutamate; -log EC50 in M; read-out: GTPγS - hmGluR2 PAM pEC50 (converted)
Sequence (Q14416 19-872): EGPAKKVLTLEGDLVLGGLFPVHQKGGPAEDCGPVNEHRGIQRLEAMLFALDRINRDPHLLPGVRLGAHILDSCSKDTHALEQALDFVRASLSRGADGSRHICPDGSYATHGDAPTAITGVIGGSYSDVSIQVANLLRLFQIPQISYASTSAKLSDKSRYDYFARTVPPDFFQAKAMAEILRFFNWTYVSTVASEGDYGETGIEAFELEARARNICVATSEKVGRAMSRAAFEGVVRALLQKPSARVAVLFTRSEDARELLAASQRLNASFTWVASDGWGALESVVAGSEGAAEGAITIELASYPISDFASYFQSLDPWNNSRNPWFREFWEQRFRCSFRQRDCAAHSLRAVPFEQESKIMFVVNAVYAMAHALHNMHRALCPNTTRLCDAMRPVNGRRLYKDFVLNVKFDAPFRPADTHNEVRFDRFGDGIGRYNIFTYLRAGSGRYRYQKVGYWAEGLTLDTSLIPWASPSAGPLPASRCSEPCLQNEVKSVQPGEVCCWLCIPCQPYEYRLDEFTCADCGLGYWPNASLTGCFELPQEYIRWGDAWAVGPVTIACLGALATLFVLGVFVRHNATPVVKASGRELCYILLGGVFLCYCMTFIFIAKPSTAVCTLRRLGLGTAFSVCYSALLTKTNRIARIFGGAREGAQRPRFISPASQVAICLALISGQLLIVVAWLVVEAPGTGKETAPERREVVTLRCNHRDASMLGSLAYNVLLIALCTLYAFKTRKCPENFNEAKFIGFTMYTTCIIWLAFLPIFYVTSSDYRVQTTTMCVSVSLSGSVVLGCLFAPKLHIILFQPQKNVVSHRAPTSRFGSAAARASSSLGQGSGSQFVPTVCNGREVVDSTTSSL
reported-endpoint: EC50 (nM)
One number for each entry, in nM.

# example entries with known answers
Please report EC50 for the following molecule: CCOc1nc(N2CCC(c3ccn4c(CC5CC5)nnc4c3C(F)(F)F)C2)ncc1Cl (stereo not drawn) [Co. No. 1] 5.89

Hello, please tell me recorded EC50 for this one: CCOCc1nnc2c(C(F)(F)F)c(C3CCN(c4ncc(Cl)c(OCC)n4)C3)ccn12 (single isomer, unassigned) [Co. No. 2a] 2090

Tell us which EC50 value is on record for CCOCc1nnc2c(C(F)(F)F)c(C3CCN(c4ncc(Cl)c(OCC)n4)C3)ccn12 (stereo not drawn) [Co. No. 2] 17

Consider the molecule CCOc1nc(N2CCC(c3ccn4c(CC5CC5)nnc4c3C(F)(F)F)C2)ncc1Cl (single isomer, unassigned) [Co. No. 1b] and give its recorded EC50. 3.8

Indicate the recorded EC50 value for this molecule: CCOCc1nnc2c(C(F)(F)F)c(C3CCN(c4ncc(Cl)c(OCC)n4)C3)ccn12 (single isomer, unassigned) [Co. No. 2b] 9.77

Consider the additional molecule presented here.
Tell me EC50 reported for CCOc1nc(N2CCC(c3ccn4c(CC5CC5)nnc4c3C(F)(F)F)C2)ncc1Cl (single isomer, unassigned) [Co. No. 1a] 214
